# Test system: human Hep G2 cells (ATCC HB-8065)
# test: Cytotoxicity in Hep G2 cells (CellTiter-Glo)
# Assay type: cell-based
# runParameters: Hep G2 cells, 100 μM test article, 24-hour exposure
measuredParameter: % Cell Viability (%)

- Cc1nnc(-c2cccc([C@@H](C)NC(=O)c3cc(N4CCN(C)CC4)ccc3C)c2)s1: 90.5
- Cc1ccc(N2CCN(C)CC2)cc1C(=O)N[C@H](C)c1cc(O)cc(-c2cnn(C)c2)c1: 80.7
- COCCNC(=O)c1cccc(-c2cccc([C@@H](C)NC(=O)c3cc(N4CCN(C)CC4)ccc3C)c2)c1: 74.6
- COc1cc([C@@H](C)NC(=O)c2cc(N3CCN(C)CC3)ccc2C)ccc1-c1cnn(C)c1: 88.4

###

# System: human Hep G2 cells (ATCC HB-8065)
# test: Cytotoxicity in Hep G2 cells (CellTiter-Glo)
# Assay type: cell-based
# runParameters: Hep G2 cells, 100 μM test article, 24-hour exposure
Structures can show the parent of a compound that is named as a salt.
Records here are stratified by % Cell Viability; strata: bucket 1 (below 60%), bucket 2 (60% to below 90%), bucket 3 (90% or more)

• Cc1ccc(N2CCN(C)CC2)cc1C(=O)N[C@H](C)c1cccc(N2CCN(CCC(=O)O)CC2)c1 [Example 166] = bucket 3
• COc1ccc([C@@H](C)NC(=O)c2cc(N3CC4CNCC4C3)ccc2C)cc1-c1cnn(C)c1 (stereo partly shown) [Example 261] = bucket 1
• COc1ccc([C@@H](C)NC(=O)c2cc(N3CCN(C)CC3)ccc2C)cc1-c1nccs1 [Example 251] = bucket 2
• CNCCN(C)C(=O)c1cccc(-c2cccc([C@@H](C)NC(=O)c3cc(N4CCN(C)CC4)ccc3C)c2)c1 [Example 99, Hydrochloride Salt] = bucket 3
• COc1cc(-c2cnn(C)c2)cc([C@@H](C)NC(=O)c2cc(C3CCN(C)CC3)ccc2C)c1 [Example 302] = bucket 2
• Cc1ccc(N2C[C@H]3C[C@@H]2CN3C)cc1C(=O)N[C@H](C)c1cccc(Br)c1 [Example 123] = bucket 1
• Cc1ccc(N2CCN(C)CC2)cc1C(=O)N[C@H](C)c1cccc(-c2ccccc2CO)c1 [Example 80] = bucket 2
• COc1cccc([C@@H](C)NC(=O)c2cc(N3CCN(C)CC3)ccc2C)c1 [Example 29] = bucket 3
• Cc1ccc(N2CCN(C)CC2)cc1C(=O)N[C@H](C)c1cccc(CCC(=O)NCCO)c1 [Example 96] = bucket 3
• C[C@@H](NC(=O)c1cccc(N2CCN(CCC(=O)O)CC2)c1)c1cccc2ccccc12 [Example 161] = bucket 3
• COc1ccc([C@@H](C)NC(=O)c2cc(N3CC4CN(C)CC4C3)ccc2C)cc1-c1cnn(C)c1 (stereo partly shown) [Example 240] = bucket 2
• Cc1ccc(N2CCN(C)CC2)cc1C(=O)N[C@H](C)c1ccc(OC(F)(F)F)c(Br)c1 [Example 190] = bucket 1
• Cc1ccc(N2CCN(C)CC2)cc1C(=O)N[C@H](C)c1cccc(-c2ccc(Cl)cc2)c1 [Example 55] = bucket 1
• Cc1ccc(N2CCN(C)CC2)cc1C(=O)N[C@H](C)c1ccc(OCCO)c(-c2cnn(C)c2)c1 [Example 282] = bucket 3
• Cc1ccc(N2CCN(C)CC2)cc1C(=O)N[C@H](C)c1cccc(-c2cccc(=O)[nH]2)c1 [Example 76] = bucket 2
• Cc1ccc(N2CCN(CCO)CC2)cc1C(=O)N[C@H](C)c1cccc(-c2cnn(C)c2)c1 [Example 112] = bucket 1
• Cc1ccc(N2CCN(C)CC2)cc1C(=O)N[C@H](C)c1ccc(F)c(Br)c1 [Example 187] = bucket 1
• Cc1ccc(N2CC3(CN(CCO)C3)C2)cc1C(=O)N[C@H](C)c1cccc2ccccc12 [Example 20] = bucket 3
• COc1cc(-c2cnn(C)c2)cc([C@@H](C)NC(=O)c2cc(N3CC4CN(C)CC4C3)ccc2C)c1 (stereo partly shown) [Example 242] = bucket 2
• Cc1ccc(N2CCN(CCCC(=O)O)CC2)cc1C(=O)N[C@H](C)c1cccc2ccccc12 [Example 172] = bucket 3
• Cc1ccc(N2CCN(C)CC2)cc1C(=O)N[C@H](C)c1cccc(-c2cccc(C(=O)NCCN(C)C)c2)c1 [Example 94] = bucket 1
• COc1cc(-c2cnn(C)c2)cc([C@@H](C)NC(=O)c2cc(N3CCCNCC3)ccc2C)c1 [Example 263] = bucket 1
• COc1ccc([C@@H](C)NC(=O)c2cc(N3CCN(C)CC3)ccc2C)cc1-c1ccncc1 [Example 211] = bucket 2
• COc1ccc([C@@H](C)NC(=O)c2cc(N3C[C@H]4C[C@@H]3CN4C)ccc2C)cc1Br [Example 181] = bucket 1
• Cc1ccc(N2CCN(C)CC2)cc1C(=O)N[C@H](C)c1cccc(-c2c(C)n[nH]c2C)c1 [Example 58] = bucket 2
• C[C@@H](NC(=O)c1cccc(C2CCNCC2)c1)c1cccc2ccccc12 [Example 6, Hydrochloride Salt] = bucket 1
• COc1ccc([C@@H](C)NC(=O)c2cc(N3CCN(C)CC3)ccc2C)cc1O [Example 291] = bucket 3
• COc1ccc(-c2cccc([C@@H](C)NC(=O)c3cc(N4CCN(C)CC4)ccc3C)c2)cc1 [Example 40] = bucket 1

###

# targetEntity: SARS-CoV-2 PLpro (Severe acute respiratory syndrome coronavirus 2, UniProt P0DTD1)
# Construct: containing 60 nM papain-like protease
# test: biochemical
# runParameters: 60 nM papain-like protease, 50 μM Z-RLRGG-AMC, pH 7.5, 37° C.; read-out: SARS-CoV-2 PLpro IC50
pIC50: −log10 of the molar value.
measuredParameter: pIC50

• COc1ccc([C@@H](C)NC(=O)c2cc(N3CCN(C)CC3)ccc2C)c2ccccc12 = > 5.70
• COc1ccc(-c2cnn(C)c2)cc1[C@@H](C)NC(=O)c1cc(N2CCN(C)CC2)ccc1C = > 5.70
• Cc1ccc(N2CCN(C)CC2)cc1C(=O)N[C@H](C)c1cccc(-c2cccc(C(=O)NCCCN(C)C)c2)c1 = > 5.70
• CNC(=O)c1cccc([C@@H](C)NC(=O)c2cc(N3CCN(C)CC3)ccc2C)c1 = > 5.00

###

# Tested on: human Hep G2 cells (ATCC HB-8065)
# test: Cytotoxicity in Hep G2 cells (CellTiter-Glo)
# Format: cell-based
# runParameters: Hep G2 cells, 100 μM test article, 24-hour exposure
Where a name gives a salt, the structure may show the parent alone.
Label criterion met when % Cell Viability is strictly below 90%; otherwise label criterion not met.

- COc1ccc([C@@H](C)NC(=O)c2cc(N3CCN(C)CC3)ccc2C)cc1OCCO [Example 294]: criterion not met
- Cc1ccc(N2CCN(C)CC2)cc1C(=O)N[C@H](C)c1cccc(-c2cn(C)nc2C)c1 [Example 61]: criterion met
- Cc1ccc(N2CCN(C)CC2)cc1C(=O)N[C@H](C)c1cncc(-c2cn(C)nc2C)c1 [Example 225]: criterion not met
- Cc1ccc(N2CCN(C)CC2)cc1C(=O)N[C@H](C)c1cccc(-c2cccc(N3CCNCC3)c2)c1 [Example 74]: criterion met
- Cc1ccc(N2CCN(C)CC2)nc1C(=O)N[C@H](C)c1cccc2ccccc12 [Example 15, hydrochloride]: criterion met
- Cc1ccc(N2CCCN(CCC(=O)O)CC2)cc1C(=O)N[C@H](C)c1cccc2ccccc12 [Example 163]: criterion not met

###

# Test system: human Hep G2 cells (ATCC HB-8065)
# test: Cytotoxicity in Hep G2 cells (CellTiter-Glo)
# Type: cell-based
# runParameters: Hep G2 cells, 100 μM test article, 24-hour exposure
Counter-ions that a name gives are not always drawn.
measuredParameter: % Cell Viability (%)

• Cc1ccc(N2CCN(C)CC2)cc1C(=O)N[C@H](C)c1cccc(-c2cccc(CS(C)(=O)=O)c2)c1 = 49.0
• Cc1ccc(C2CC2)cc1C(=O)N[C@H](C)c1cccc2ccccc12 = 56.8
• Cc1ccc(N2CCN(C)CC2)cc1C(=O)N[C@H](C)c1cccc(-c2cnn(C)c2)c1 = 82.4
• Cc1ccc(N2C[C@H]3C[C@@H]2CN3C)cc1C(=O)N[C@H](C)c1cccc2c1OCO2 = 95.4
• Cc1ccc(N2CCN[C@@H](C(C)C)C2)cc1C(=O)N[C@H](C)c1cccc2ccccc12 = 1.0
• COc1ccc([C@@H](C)NC(=O)c2cc(N3CCN(C)CC3)ccc2C)cc1F = 5.6
• Cc1ccc(N2CCN(CCO)CC2)cc1C(=O)N[C@H](C)c1cccc2ccccc12 = 74.8
• Cc1ccc(N2CCN(C)CC2)cc1C(=O)N[C@H](C)c1ccc(Br)cc1 = 70.7
• Cc1ccc(N2CCN(C)CC2)cc1C(=O)N[C@H](C)c1cccc(-c2cccc(C(=O)N(C)CCN(C)C)c2)c1 = 72.1
• C[C@@H]1CN(c2ccc(Cl)c(C(=O)N[C@H](C)c3cccc4ccccc34)c2)C[C@H](C)N1 = 0.1
• Cc1ccc(N2CCN(C)CC2)cc1C(=O)N[C@H](C)c1cccc(N2CC(CO)OC2=O)c1 (stereo partly shown) = 100.7
• Cc1ccc(N2CCN(CC3CC3)CC2)cc1C(=O)N[C@H](C)c1cccc2ccccc12 = 6.6
• COc1ccc([C@@H](C)NC(=O)c2cc(N3CCC4(CC3)CNC4)ccc2C)cc1-c1cnn(C)c1 = 111.1
• COc1cc(-c2cn(C)nc2C)cc([C@@H](C)NC(=O)c2cc(C3CCN(C)CC3)ccc2C)c1 = 77.5
• COc1ccc([C@@H](C)NC(=O)c2cc(N3CCN(CCO)CC3)ccc2C)cc1-c1cnn(C)c1 = 92.6
• COc1cc(Br)cc([C@@H](C)NC(=O)c2cc(N3CCN(C)CC3)ccc2C)c1 = 1.0
• COc1ccc([C@@H](C)NC(=O)c2cc(N3CCN(C)CC3)ccc2C)cc1-c1cn(C)nc1C = 96.8
• Cc1ccc(N2CCN(C)CC2)cc1C(=O)N[C@H](C)c1cccc(-c2cccc(C(N)=O)c2)c1 = 71.3
• C[C@@H](NC(=O)c1cc(N2CCN(C)CC2)ccc1Cl)c1cccc2ccccc12 = 1.0
• COc1ccc([C@@H](C)NC(=O)c2cc(N3C[C@H]4C[C@@H]3CN4C)ccc2C)cc1-c1csc(C(=O)N(C)C)c1 = 50.3
• Cc1ccc(N2CCN(CCC(=O)O)CC2)cc1C(=O)N[C@H](C)c1cccc(-c2cccc(CO)c2)c1 = 107.9
• COc1ccc([C@@H](C)NC(=O)c2cc(N3CCN(C)CC3)ccc2C)cc1-c1ccc(=O)n(C)c1 = 64.0
• COc1cc(-c2cnn(C)c2)cc([C@@H](C)NC(=O)c2cc(C3CCNCC3)ccc2C)c1 = 73.2
• COc1cc(OC)c([C@@H](C)NC(=O)c2cc(N3CCN(C)CC3)ccc2C)cc1Br = 72.5
• CC(=O)N1CCN(c2cccc(C(=O)N[C@H](C)c3cccc4ccccc34)c2)CC1 = 81.5
• COc1cc(-c2ccnn2C)cc([C@@H](C)NC(=O)c2cc(N3C[C@H]4C[C@@H]3CN4C)ccc2C)c1 = 55.3
• COCCN1CCN(c2ccc(C)c(C(=O)N[C@H](C)c3cccc(-c4cnn(C)c4)c3)c2)CC1 = 59.0
• COc1c(-c2cnn(C)c2)cccc1[C@@H](C)NC(=O)c1cc(N2CCN(C)CC2)ccc1C = 91.4
• COc1ccc([C@@H](C)NC(=O)c2cc(N3CCCN(C)CC3)ccc2C)cc1OC = 103.8
• COc1cc(Br)cc([C@@H](C)NC(=O)c2cc(N3C[C@H]4C[C@@H]3CN4C)ccc2C)c1 = 1.6
• COc1ccc([C@@H](C)NC(=O)c2cc(N3CCN(C)CC3)ccc2C)cc1OCCN [Example 295, Dihydrochloride Salt] = 107.9
